Please go through the items and note down their Dmax.
target: IKZF2 (Homo sapiens (Human), UniProt Q96SW2+Q9UKS7); experiment: IKZF2 HiBiT Assay (Jurkat-IKZF2-HiBiT cell line); type: cell-based; conditions: Jurkat-IKZF2-HiBiT cells, 24 hours; read-out: HiBit assay degradation analysis Dmax
Sequence (Q9UKS7 whole entry): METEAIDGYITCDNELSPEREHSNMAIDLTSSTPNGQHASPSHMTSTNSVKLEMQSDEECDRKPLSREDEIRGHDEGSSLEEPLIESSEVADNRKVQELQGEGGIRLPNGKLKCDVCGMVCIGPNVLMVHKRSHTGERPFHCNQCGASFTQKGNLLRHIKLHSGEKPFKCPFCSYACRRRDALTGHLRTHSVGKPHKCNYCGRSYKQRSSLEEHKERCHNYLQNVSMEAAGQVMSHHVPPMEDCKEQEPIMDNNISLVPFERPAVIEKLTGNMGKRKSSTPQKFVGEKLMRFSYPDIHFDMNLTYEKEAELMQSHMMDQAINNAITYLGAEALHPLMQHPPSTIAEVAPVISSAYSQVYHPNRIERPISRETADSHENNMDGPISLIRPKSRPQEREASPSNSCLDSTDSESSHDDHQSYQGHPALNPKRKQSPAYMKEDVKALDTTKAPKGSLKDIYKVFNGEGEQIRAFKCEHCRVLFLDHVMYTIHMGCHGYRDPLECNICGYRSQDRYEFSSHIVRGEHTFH
Sequence (Q96SW2 whole entry): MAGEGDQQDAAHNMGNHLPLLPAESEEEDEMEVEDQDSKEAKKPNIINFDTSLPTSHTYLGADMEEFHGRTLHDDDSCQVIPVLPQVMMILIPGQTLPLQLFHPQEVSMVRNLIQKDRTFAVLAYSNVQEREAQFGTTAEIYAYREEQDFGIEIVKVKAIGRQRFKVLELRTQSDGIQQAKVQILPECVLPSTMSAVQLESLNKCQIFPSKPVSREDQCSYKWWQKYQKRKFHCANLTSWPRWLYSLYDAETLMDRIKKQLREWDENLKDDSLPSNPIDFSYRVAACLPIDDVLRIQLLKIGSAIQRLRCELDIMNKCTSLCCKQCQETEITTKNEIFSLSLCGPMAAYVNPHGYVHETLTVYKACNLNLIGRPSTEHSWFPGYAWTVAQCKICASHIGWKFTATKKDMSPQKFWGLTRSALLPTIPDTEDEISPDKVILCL
Sequence (Q16531 whole entry partner): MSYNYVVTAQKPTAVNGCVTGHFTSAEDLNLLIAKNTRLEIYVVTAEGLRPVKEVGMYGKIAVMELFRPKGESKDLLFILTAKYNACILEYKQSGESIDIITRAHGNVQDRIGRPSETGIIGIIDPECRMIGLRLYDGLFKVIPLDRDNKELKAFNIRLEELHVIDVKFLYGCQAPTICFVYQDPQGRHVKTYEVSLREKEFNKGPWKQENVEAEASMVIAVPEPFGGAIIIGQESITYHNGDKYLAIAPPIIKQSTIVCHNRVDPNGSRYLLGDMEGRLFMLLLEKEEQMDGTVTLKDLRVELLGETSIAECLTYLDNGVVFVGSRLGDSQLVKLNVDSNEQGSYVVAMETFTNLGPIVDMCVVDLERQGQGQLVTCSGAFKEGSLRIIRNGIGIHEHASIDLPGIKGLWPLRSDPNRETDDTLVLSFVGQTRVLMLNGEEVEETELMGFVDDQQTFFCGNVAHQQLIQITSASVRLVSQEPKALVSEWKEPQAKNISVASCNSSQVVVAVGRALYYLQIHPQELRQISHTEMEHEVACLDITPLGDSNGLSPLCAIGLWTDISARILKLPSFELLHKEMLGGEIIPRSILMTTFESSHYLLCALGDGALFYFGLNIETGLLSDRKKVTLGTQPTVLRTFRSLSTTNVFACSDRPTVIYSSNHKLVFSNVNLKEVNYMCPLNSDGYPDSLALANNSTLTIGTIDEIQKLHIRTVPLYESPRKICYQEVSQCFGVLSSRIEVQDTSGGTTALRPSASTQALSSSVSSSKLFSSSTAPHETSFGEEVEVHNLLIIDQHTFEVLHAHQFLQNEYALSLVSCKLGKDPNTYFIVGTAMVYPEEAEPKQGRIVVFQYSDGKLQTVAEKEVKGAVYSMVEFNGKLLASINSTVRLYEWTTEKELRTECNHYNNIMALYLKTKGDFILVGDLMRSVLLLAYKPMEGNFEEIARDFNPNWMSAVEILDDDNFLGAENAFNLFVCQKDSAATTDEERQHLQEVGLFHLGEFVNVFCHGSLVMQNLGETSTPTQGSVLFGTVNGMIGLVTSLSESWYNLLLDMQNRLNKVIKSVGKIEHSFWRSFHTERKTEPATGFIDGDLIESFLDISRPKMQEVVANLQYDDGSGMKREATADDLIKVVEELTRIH

Reference set, count: 2
O=C1CC[C@H](N2Cc3c(ccc4c3OCC43CCN(Cc4cccc(-c5cnn(C6COC6)c5)c4)CC3)C2=O)C(=O)N1 [Compound A265] : 60 to 80%
CN(C)S(=O)(=O)c1ccc(CN2CCC3(CC2)COc2c3ccc3c2CN(C2CCC(=O)NC2=O)C3=O)cc1 (stereo not drawn) [Compound A210] : < 40%

Annotate the compound O=C1CC[C@H](N2Cc3c(ccc4c3OCC43CCN(Cc4cccc(-c5cnn(C(F)(F)F)c5)c4)CC3)C2=O)C(=O)N1 [Compound A282] with its measured Dmax. 60 to 80%
